Listing: TGI of selected compounds
Test system: K-562 leukemia
Assay: NCI tumour cell line growth inhibition, 48 h

- compound: "Cc1nc(SCC(=O)Nc2ccc(Cl)cc2)c2sc(=S)n(-c3ccccc3)c2n1"
  assayedSystem: "K-562 leukemia"
  TGI: "> 10 µM"
- compound: "Cc1ccc(Nc2nccc(N(C)c3ccc4c(C)n(C)nc4c3)n2)cc1S(N)(=O)=O"
  assayedSystem: "K-562 leukemia"
  TGI: "> 100 µM"
- compound: "O=C(Cc1ccccc1F)NC1=C(Cl)C(=O)c2ccccc2C1=O"
  assayedSystem: "K-562 leukemia"
  TGI: "> 41.8 µM"
- compound: "CCOC(=O)NN(C(=O)OCC)C(C(=O)C1=CCCCC1)N(NC(=O)OCC)C(=O)OCC"
  assayedSystem: "K-562 leukemia"
  TGI: "> 100 µM"
- compound: "COc1ccc(/C=C/C(=O)/C=C/c2ccc(OC)cc2OC)c(OC)c1"
  assayedSystem: "K-562 leukemia"
  TGI: "8.4 µM"
- compound: "COC1C(O)CC(OC2CC(OC3CC(O[C@@H]4C(=O)c5c(cc6cc(OC7CC(OC8CC(O)C(O)C(C)O8)C(O)C(C)O7)c(C)c(O)c6c5O)CC4[C@H](OC)C(=O)O)OC(C)C3O)OC(C)C2O)OC1C (some centres undefined)"
  assayedSystem: "K-562 leukemia"
  TGI: "> 33.3 µM"
- compound: "CSCC[C@@H]1C(=O)N(C)[C@H](C(C)(C)C)N1C(=O)c1ccccc1"
  assayedSystem: "K-562 leukemia"
  TGI: "> 100 µM"
- compound: "CC(CC(N)C(=O)O)C(=O)O (centres undefined)"
  assayedSystem: "K-562 leukemia"
  TGI: "> 100 µM"
- compound: "c1ccc(-c2nc3ccccc3nc2SCc2cccnc2)cc1"
  assayedSystem: "K-562 leukemia"
  TGI: "> 100 µM"

----------
System: SK-MEL-5 melanoma
Assay: NCI tumour cell line growth inhibition, 48 h

- molecule: "C=CCN1/C(=C(\\C#N)c2nc3ccccc3[nH]2)Sc2c1nc[nH]c2=O"
  assayedSystem: "SK-MEL-5 melanoma"
  unitSymbol: "µM"
  qualifierSign: ">"
  TGI: 100
- molecule: "COc1cc(/C=C(\\NC(=O)c2ccccc2)c2nc3ccc4c(c3[nH]2)C(=O)c2ccccc2C4=O)cc(OC)c1OC"
  assayedSystem: "SK-MEL-5 melanoma"
  unitSymbol: "µM"
  qualifierSign: ">"
  TGI: 100
- molecule: "CCCCCCCCCCCCOP(=O)(O)OP(=O)(O)OCC1OC(n2ccc(N)nc2=O)CC1O (stereo unspecified)"
  assayedSystem: "SK-MEL-5 melanoma"
  unitSymbol: "µM"
  qualifierSign: ">"
  TGI: 100
- molecule: "COc1ccc(/C=C2/CSCC3=C2NC(=S)NC3c2ccc(OC)c(OC)c2OC)c(OC)c1OC (stereo unspecified)"
  assayedSystem: "SK-MEL-5 melanoma"
  unitSymbol: "µM"
  qualifierSign: "="
  TGI: 29.8
- molecule: "CCOC(=O)C1SC(=Nc2ccc(OC)c(OC)c2)N=C1C (stereo unspecified)"
  assayedSystem: "SK-MEL-5 melanoma"
  unitSymbol: "µM"
  qualifierSign: "="
  TGI: 37.2
- molecule: "CC(=O)Nc1ccc2nc(-c3ccccn3)c(-c3ccccn3)nc2c1"
  assayedSystem: "SK-MEL-5 melanoma"
  unitSymbol: "µM"
  qualifierSign: ">"
  TGI: 100
- molecule: "CC(C)C12Cc3c(ccc4ccccc34)OC1(C)Oc1ccc3ccccc3c1C2 (stereo unspecified)"
  assayedSystem: "SK-MEL-5 melanoma"
  unitSymbol: "µM"
  qualifierSign: ">"
  TGI: 100
- molecule: "CCCNC(=S)N/N=C(\\C)c1ccc(S(=O)(=O)N(C)c2ccccc2)cc1"
  assayedSystem: "SK-MEL-5 melanoma"
  unitSymbol: "µM"
  qualifierSign: ">"
  TGI: 100
- molecule: "COC(=O)c1cc(C(=O)OC)c(CC(=O)C(=O)NC2C3CC4CC(C3)CC2C4)nc1CC(=O)C(=O)NC1C2CC3CC(C2)CC1C3 (stereo unspecified)"
  assayedSystem: "SK-MEL-5 melanoma"
  unitSymbol: "µM"
  qualifierSign: ">"
  TGI: 100
- molecule: "Cc1cccc(Br)[n+]1[O-]"
  assayedSystem: "SK-MEL-5 melanoma"
  unitSymbol: "µM"
  qualifierSign: ">"
  TGI: 100
- molecule: "Cc1c(O)c(N=Nc2nc3ccccc3s2)c2ccccc2c1O"
  assayedSystem: "SK-MEL-5 melanoma"
  unitSymbol: "µM"
  qualifierSign: "="
  TGI: 21.2
- molecule: "Cn1c(=O)c(Oc2ccc(F)cc2F)cc2cnc(NC(C)(C)CO)nc21"
  assayedSystem: "SK-MEL-5 melanoma"
  unitSymbol: "µM"
  qualifierSign: ">"
  TGI: 25
- molecule: "Cc1[nH]c(=O)[nH]c(=O)c1/C=C/C(=O)O (tested in a mixture with another compound)"
  assayedSystem: "SK-MEL-5 melanoma"
  unitSymbol: "µM"
  qualifierSign: ">"
  TGI: 625
- molecule: "CC(C)C(=O)N1Cc2cc(Cl)cc(Cl)c2OC(=O)c2ccccc21"
  assayedSystem: "SK-MEL-5 melanoma"
  unitSymbol: "µM"
  qualifierSign: "="
  TGI: 38.3
- molecule: "CC1=C2CC(C)(C)/C=C\\C(=O)/C(C)=C\\C3=C[C@H](C)C[C@]3(O2)C1=O"
  assayedSystem: "SK-MEL-5 melanoma"
  unitSymbol: "µM"
  qualifierSign: "="
  TGI: 8.06
- molecule: "S=C(NCCc1ccccn1)N/N=C/c1ccccn1"
  assayedSystem: "SK-MEL-5 melanoma"
  unitSymbol: "µM"
  qualifierSign: "="
  TGI: 2.69
- molecule: "N#CC(N=Nc1ccccc1C(=O)O)C(N)=O (stereo unspecified)"
  assayedSystem: "SK-MEL-5 melanoma"
  unitSymbol: "µM"
  qualifierSign: ">"
  TGI: 100
- molecule: "O=C1C(Cl)=C(Nc2ccc(Nc3ccccc3)c(NC3=C(Cl)C(=O)c4ccccc4C3=O)c2)C(=O)c2ccccc21"
  assayedSystem: "SK-MEL-5 melanoma"
  unitSymbol: "µM"
  qualifierSign: "="
  TGI: 32
- molecule: "Oc1ccc(O)c(-c2cn3c(n2)SCC3)c1"
  assayedSystem: "SK-MEL-5 melanoma"
  unitSymbol: "µM"
  qualifierSign: "="
  TGI: 33
- molecule: "S=C1NC2=C(COc3ccccc32)C(c2ccc(Cl)cc2)N1 (stereo unspecified)"
  assayedSystem: "SK-MEL-5 melanoma"
  unitSymbol: "µM"
  qualifierSign: "="
  TGI: 30.5
